Listing of entries alongside the reported melting point.

Cc1nn(C)c(C(=O)N(C)C)c1[N+](=O)[O-] = 57 to 59.5 °C
CCCSCCNC(=O)n1cc(F)c(=O)[nH]c1=O = 112 to 114 °C

compound `CCCC(O)(CCC)c1c2c(nn1C)N(c1c(C)cc(C)cc1Cl)CCC2` , melting point observed: 129 to 130 °C

So for `O=C(NC(=O)C(c1ccccc1)c1ccccc1)OC1CCCCC1` , the logged melting point turned out to be 117 to 119 °C

Short answer for Cc1ccc(S(=O)(=O)NC(=O)CC(=O)N2CCCC2C(=O)N2CCN(C3(N4CCCC4)N=CC=C(N4CCCC4)N3)CC2)cc1 (single isomer, unassigned; (-)) : melting point was 170 °C

Value of melting point reported for the compound `CC(C)Cc1ccc(N)cc1C#N` is 68 °C

Kindly note the recorded melting point for Cc1cccc2c1C[C@H](C(=O)O)[C@@H]2C (relative stereo) , which is 132 to 135 °C

Entry `Cc1ccc(OC(C)C)c(-c2cc(=O)c3cc(C(=O)O)ccc3o2)c1` , melting point reported as 209 to 210 °C

# melting point (compound: `Nc1cc(I)c(-c2cc([N+](=O)[O-])c(N)cc2I)cc1[N+](=O)[O-]` ) is 346 to 348 °C

###

Reported melting point values for the following compounds.

O=C(O)Cc1c(C(=O)O)c2cc(Oc3ccc(Cl)c(F)c3)ccc2n1-c1ccccc1 = 174 to 176 °C
CC(=O)NC[C@H]1CN(c2ccc(N3CCC(n4nnnc4CS(C)(=O)=O)CC3)c(F)c2)C(=O)O1 = 192 °C
C1=C(c2c[nH]c3ccccc23)CCN(CC2COc3ccc4occc4c3O2)C1 (stereo not given) = 208 to 209 °C
COc1ccc(C(=O)c2c(-c3ccc(OC)cc3)sc3cc(OC)ccc23)cc1 = 119 to 120 °C
C=CCn1c(C)nc2c3c(ccc21)[C@@H](OCCF)[C@H](OC(=O)C(C)(C)C)[C@@H](c1ccccc1)O3 = 119 °C

Continue with the next compound.
Entry `COc1c(OC(C)=O)ccc(C=O)c1[N+](=O)[O-]` — recorded melting point = 84 to 86 °C

###

The following compounds are listed with their measured melting point values.

Kindly note the recorded melting point for NCC(O)C1=CC2(CCCC2)c2ccccc21 (stereo not given) , which is 76 to 78 °C

###

MEASURED QUANTITY: melting point (°C)

A. O=C1Nc2ccc(I)cc2C1=NNC(=O)c1ccc(OC(F)(F)F)cc1
B. CCCCCCCCS(=O)(=O)CC(CS(=O)(=O)c1ccc(OC)cc1)C(=O)NO (stereo not given)
Sorting ascending by melting point, which comes first: A or B ? Which one? Tell me its label.
B
(B: 134 °C, A: 306 °C)

###

MEASURED QUANTITY: melting point

Documented melting point of CC(C)C1Oc2ccccc2NC1=O (stereo not given) : 118 to 119 °C

###

MEASURED QUANTITY: melting point

Solved entries:
Cc1c(N2CC(C)[C@@](N)(CF)C2)c(F)cc2c(=O)c(C(=O)O)cn([C@@H]3C[C@@H]3F)c12 (stereo not given in full) = 200 to 203 °C
CC(=O)Nc1c(C(=O)c2ccccc2)[nH]c2cccc(F)c12 = 131 to 133 °C

// melting point lookup, compound = O=C1CC2Sc3nc(=O)c4ccccc4n3C2(c2ccc(Cl)cc2)O1 (stereo not given) , result: 215 to 220 °C

melting point reading for `COc1ccc(C(=O)c2ccc(Cl)nc2)c(OCc2ccccc2)c1` : 93 to 94 °C

So for `N#CC=C(N)c1ccsc1` , the logged melting point turned out to be 67 to 69.5 °C

Lab book: melting point of `Clc1ccc(Cc2cccnn2)c(Cl)c1` noted as 67 to 69 °C

# melting point (compound: `NS(=O)(=O)c1cnc(-c2cn(-c3cc(-c4ccc(C(F)(F)F)cc4)cc(C(F)(F)F)n3)cn2)s1` ) is > 250 °C

Measured melting point of `CCCCCCCCCCCCCCCCCCOc1cc(N)cc(OCCCP(=O)(OCC)OCC)c1` : 63 to 65 °C

Lab note: measured melting point of `CC(C)(C)OC(=O)N[C@@H](CC1CCCCC1)[C@@H]1CO1` was 58 to 59.5 °C

Notebook: `Cc1nc(N2CCN(Cc3ccc(F)cc3)C2=O)sc1C(=O)N(C)C` , melting point read as 162 to 164 °C

###

melting point reference

Recorded melting point, per entry:
O=c1[nH]c2ccccc2c2c(CO)c(CO)nn12 = 247 to 250 °C
Nc1ccc(OCCCOc2ccc(N)cc2[N+](=O)[O-])c([N+](=O)[O-])c1 = 152 to 153 °C
N#Cc1cn(C2CC2)c2c(F)c(F)c(F)cc2c1=O = 213 to 215 °C

The compound `CCC(=O)Nc1c(Cl)cc(Cl)c(-c2nsc(C(F)(F)F)c2Cl)c1Br` showed melting point equal to 156 °C

Briefly, melting point measured for `CC(C)C[C@H](NC(=O)C1(N)CCCCC1)C(=O)NCC(N)=O` : 136 to 147 °C

Per the record, `NC(=O)c1nc(-c2cccc(O)c2)nc2c1[nH]c(=O)n2-c1ccccc1Cl` has melting point of 360 to 364 °C

The compound listed as `O=C(Nc1cc(Cl)cc(Cl)c1)c1cc(Br)cc(Br)c1O` shows melting point equal to 181 to 182 °C

Input CCOC(=O)CCC(CC(=O)c1ccc(N)cc1)C(=O)OCC (racemic) . Output melting point: 58 to 61 °C

###

Known melting point of a selection of compounds

Some entries whose results are on file:
COc1ccc(-c2csc(Nc3ccccc3C(F)(F)F)n2)cc1OC = 188 °C
Cc1c(N2C[C@@H](N)[C@@H](C(F)F)C2)c(F)cc2c(=O)c(C(=O)O)cn([C@@H]3C[C@@H]3F)c12 = 214 to 216 °C
CCCC(=O)n1ccc(-c2ccc(C(=O)N3Cc4cccn4Cc4ccccc43)cc2)n1 = 105 to 110 °C
CN(C(=O)COc1cc(-c2ccccc2)nc2ccccc12)C1CCC1 = 110 °C
CCCCCc1cc2c(nc(O)n2CC2CCN(C(=O)C3CC3)CC2)c(N)n1 = 205 to 207 °C

Lab book: melting point of `COc1ccc(-c2nc(NC(C)=O)sc2-c2cccnc2)cc1` noted as 208 to 210 °C

get_value(item= `C[C@@H](c1ccccc1)N1C[C@H]2CCOC(=O)[C@H]2C1` , readout=melting point) returns 86 to 87 °C

The compound identified as `CC(=O)N1CCC(c2nc(N)nc3ccccc23)CC1` registered its melting point at 184 to 186 °C

The recorded melting point for `CNC[C@@H](O)c1cc2ccccc2o1` is 88 to 90 °C

For `CC(=O)NCc1cc([N+](=O)[O-])ccc1N` the compound record lists melting point as 208 to 210 °C

The recorded melting point for `COc1c(C(=O)O)sc(C)c1C` is 142 to 143 °C

Lab note: `O=C(O)C(=O)CC(=O)c1cccn1Cc1ccccc1F` gave melting point of 155 to 156 °C

Sample O=C(c1ccc(Cl)cc1)C(CC1OCCO1)Sc1ccccc1 (stereo not given) ; melting point observed: 74 to 75 °C

###

MEASURED QUANTITY: melting point

Check out these entries, answers already filled in.
OC1(Cl)C=CC=CC1(O)Cl (stereo not given) = 113 to 114 °C
CN(Cc1cc(C(F)(F)F)cc(C(F)(F)F)c1)C(=O)c1nc(N2CCOCC2)ncc1-c1ccccc1 = 154 to 155 °C
CC(Oc1ccc(N(C)c2nnc3cc(Cl)ccc3n2)cc1)C(=O)O (stereo not given) = 125 °C
CC1(C)CCC(C)(C)c2cc(NC(=O)c3ccc(OCCN4CCOCC4)cc3)ccc21 = 130 to 132 °C

Moving on to another compound below.
Field melting point (entry CNS(=O)(=O)c1ccc(N2CC(CO)OC2=O)cc1 (stereo not given) ) reads 164 to 166 °C

###

Measured melting point, listed per entry for reference.

Completed entries (count: 4):
Cc1cc(SC2=C(O)CC(CCc3ccc(O)cc3)(CCc3ccc(O)cc3)OC2=O)c(C(C)(C)C)cc1OS(=O)(=O)N1CCN(C)CC1 = 150 °C
COc1cc(C(=O)CCl)ccc1O = 102 to 103 °C
Nc1cc(Oc2ccncc2)ccc1[N+](=O)[O-] = 170 to 175 °C
CCOC(=O)/C=C/S(=O)(=O)c1ccc(C(C)(C)C)cc1 = 88 to 91 °C

Pending molecule:
// melting point value for Cc1c2ccc(-c3nn(C(C)c4oc5ccccc5c(=O)c4-c4cccc(F)c4)c4ncnc(N)c34)cc2nn1C (stereo not given) : 269 to 274 °C

###

melting point values, listed per item

Below are worked cases with known answers.
CCOC(=O)c1cc2c(=O)n(C)c3ccccc3n2c1 = 197 to 198 °C
COc1cc(C(F)(F)F)cc(Cl)c1-n1nc(C#N)c(SC(C)(F)F)c1N = 79 °C
Cn1cc(C(=O)Nc2ccccc2OC(F)(F)C(F)F)c(C(F)F)n1 = 117 to 119 °C
O=C1CCC2(CCC(=O)c3ccccc32)C(=O)N1 (stereo not given) = 197 to 199 °C

Let us move to another entry and its melting point.
Kindly note the recorded melting point for CC(C)(C)C(=O)Nc1ccc(C=CC(=O)N2CCc3c([nH]c4ccccc34)C2c2ccc3c(c2)OCO3)cc1 (stereo not given) , which is 172 to 174 °C
